// reported Percent Effect per item
Molecular target: Arginase-2, mitochondrial (Homo sapiens) (UniProt P78540)
Sequence (P78540 whole entry): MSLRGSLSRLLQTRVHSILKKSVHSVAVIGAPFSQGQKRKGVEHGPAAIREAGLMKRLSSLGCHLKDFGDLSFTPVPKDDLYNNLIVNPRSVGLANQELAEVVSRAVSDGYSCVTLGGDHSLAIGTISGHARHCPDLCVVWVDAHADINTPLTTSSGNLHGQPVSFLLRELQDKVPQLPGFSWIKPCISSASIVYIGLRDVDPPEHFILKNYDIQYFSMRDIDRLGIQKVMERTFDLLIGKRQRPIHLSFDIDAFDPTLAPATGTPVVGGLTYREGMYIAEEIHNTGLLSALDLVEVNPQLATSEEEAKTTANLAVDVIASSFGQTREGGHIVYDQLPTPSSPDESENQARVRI
Assay: in vitro enzyme assay to detect the production of urea directly proportional to the activity of Arginase II; further: in the data most compounds retested in dose-response had high values
Assay type: functional
Set-up: scale not given: direction of the effect not stated beside the values
Conditions: 33.3 µM

- COMPOUND: "COC(=O)c1ccc(N2CCN(CCC(=O)NC(N)=O)C(C)C2)cc1 (stereo unspecified)"
  Percent Effect, %: -0.719
- COMPOUND: "COc1ccccc1C(O)CNC(=O)NCc1cccnc1OC (stereo unspecified)"
  Percent Effect, %: -0.38
- COMPOUND: "Cc1cnn(CCNCc2nc(Cc3ccccc3)no2)c1"
  Percent Effect, %: 5.75
- COMPOUND: "N#CC1(C(=O)N2CCN(Cc3cscn3)CC2)CCCC1"
  Percent Effect, %: 2.66
- COMPOUND: "CC(C)(C)c1nnc(CN2CCOC(Cn3cncn3)C2)o1 (stereo unspecified)"
  Percent Effect, %: -6.56
- COMPOUND: "CC(C)(C)c1cn2nc(N3CCC[C@@H]3CO)sc2n1"
  Percent Effect, %: 2.87
- COMPOUND: "Cc1nc(C)c(C(=O)N2CCC(Nc3cccnc3)CC2)s1"
  Percent Effect, %: 8.38
- COMPOUND: "CS(=O)(=O)NCc1cc2n(n1)CCCN(Cc1nc3ccccc3[nH]1)C2"
  Percent Effect, %: 3.85
- COMPOUND: "Cc1cccc(NC(=O)[C@@H]2CCCN2CC(=O)N2CCCCCC2)n1"
  Percent Effect, %: 34.4
- COMPOUND: "Cc1ncccc1O[C@H]1CCN(C(=O)c2cccs2)CC[C@@H]1O"
  Percent Effect, %: -2.09
- COMPOUND: "CCc1cc(C(=O)N2CCC(Nc3ccc(C)nn3)CC2)sc1C"
  Percent Effect, %: -4.88

---

Listed here are molecules together with their documented Percent Effect.
Molecular target: Chromo domain-containing protein 1 (Saccharomyces cerevisiae (strain ATCC 204508 / S288c) (Baker's yeast)) (UniProt P32657)
Sequence (P32657 whole entry, the tested form may be a part): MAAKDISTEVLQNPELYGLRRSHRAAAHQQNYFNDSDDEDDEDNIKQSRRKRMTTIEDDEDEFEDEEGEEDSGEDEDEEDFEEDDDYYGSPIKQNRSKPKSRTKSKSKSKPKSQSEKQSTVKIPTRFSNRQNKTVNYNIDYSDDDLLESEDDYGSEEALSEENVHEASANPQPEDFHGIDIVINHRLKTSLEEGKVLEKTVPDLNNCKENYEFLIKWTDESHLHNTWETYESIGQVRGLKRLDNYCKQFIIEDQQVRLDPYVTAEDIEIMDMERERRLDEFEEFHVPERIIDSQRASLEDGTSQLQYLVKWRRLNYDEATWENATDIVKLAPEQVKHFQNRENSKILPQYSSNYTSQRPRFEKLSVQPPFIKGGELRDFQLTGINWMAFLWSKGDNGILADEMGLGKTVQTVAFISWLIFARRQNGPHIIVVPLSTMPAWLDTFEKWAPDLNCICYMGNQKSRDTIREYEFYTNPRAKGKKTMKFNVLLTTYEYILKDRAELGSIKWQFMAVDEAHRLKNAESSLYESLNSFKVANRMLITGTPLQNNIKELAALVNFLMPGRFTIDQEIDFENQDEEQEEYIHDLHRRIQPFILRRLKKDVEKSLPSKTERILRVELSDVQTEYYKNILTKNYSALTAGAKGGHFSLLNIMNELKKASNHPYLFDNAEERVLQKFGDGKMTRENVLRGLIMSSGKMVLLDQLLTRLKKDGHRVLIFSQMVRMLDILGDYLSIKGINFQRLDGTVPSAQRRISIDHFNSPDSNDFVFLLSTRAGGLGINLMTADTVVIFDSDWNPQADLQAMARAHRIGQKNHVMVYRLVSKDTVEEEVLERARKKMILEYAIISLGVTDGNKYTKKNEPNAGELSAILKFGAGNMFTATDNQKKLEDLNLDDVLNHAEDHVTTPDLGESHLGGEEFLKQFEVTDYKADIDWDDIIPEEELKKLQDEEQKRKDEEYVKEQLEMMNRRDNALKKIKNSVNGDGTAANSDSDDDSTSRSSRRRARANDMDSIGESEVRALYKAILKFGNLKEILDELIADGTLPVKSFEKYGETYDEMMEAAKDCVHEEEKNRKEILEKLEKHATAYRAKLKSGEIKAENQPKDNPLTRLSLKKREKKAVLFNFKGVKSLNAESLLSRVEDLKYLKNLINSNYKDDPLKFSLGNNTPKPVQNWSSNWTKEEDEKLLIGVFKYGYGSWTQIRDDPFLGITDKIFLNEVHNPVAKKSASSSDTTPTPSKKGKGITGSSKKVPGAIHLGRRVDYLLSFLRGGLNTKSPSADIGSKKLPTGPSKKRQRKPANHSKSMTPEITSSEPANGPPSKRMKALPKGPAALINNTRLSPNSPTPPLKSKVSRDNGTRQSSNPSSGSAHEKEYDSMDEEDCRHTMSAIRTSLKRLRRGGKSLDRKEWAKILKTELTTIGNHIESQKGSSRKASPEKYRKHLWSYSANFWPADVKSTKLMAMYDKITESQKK
Experiment: ScCHD-1 Enzyme Inhibition Assay; further: in the data most compounds retested in dose-response had high values
Format: functional
Parameters: scale not given: direction of the effect not stated beside the values
Details: 30 µM
TEST_READOUT: Percent Effect (%)

- MOLECULE: "COC(=O)c1cc(OCC2CCC2)cc(C(=O)N[C@H]2CC[C@H](O)CC2)c1"
  TEST_READOUT: "Percent Effect"
  ENDPOINT_RESULT: 0.449
- MOLECULE: "Cn1c(C2CC2)nc2c1CCN(CCS(=O)(=O)c1ccccc1)C2"
  TEST_READOUT: "Percent Effect"
  ENDPOINT_RESULT: -4.67
- MOLECULE: "NC(=O)c1csc(C(=O)N2CCCC(n3ccnc3)C2)c1 (stereo unspecified)"
  TEST_READOUT: "Percent Effect"
  ENDPOINT_RESULT: -9.55
- MOLECULE: "O=C1C(NCc2nnc3n2CCCC3)CCN1c1ccccc1 (stereo unspecified)"
  TEST_READOUT: "Percent Effect"
  ENDPOINT_RESULT: -2.81
- MOLECULE: "COCCC(=O)N1CC[C@@H](N(C)C)[C@@H]1Cc1ccccc1"
  TEST_READOUT: "Percent Effect"
  ENDPOINT_RESULT: -0.866
- MOLECULE: "CCN1CC2(CCN(CCOCCO)CC2)CC(c2ccccc2)C1=O (stereo unspecified)"
  TEST_READOUT: "Percent Effect"
  ENDPOINT_RESULT: -6.05

---

Each item that follows carries a reported Percent Effect.
Target: AMP-activated protein kinase, AMPK (Homo sapiens) (UniProt P54646+O43741+P54619+Q9UGJ0+Q9Y478+Q13131+Q9UGI9)
Assay: AMP-dependent Kinase enzyme assay. An in vitro enzyme assay that detects ADP turnover that is directly proportional to AMPK activity. This uses naive AMPK that is activated during the assay with MK-8722
Assay type: functional
Parameters: scale not given: direction of the effect not stated beside the values
Conditions: 30 µM
TEST_READOUT: Percent Effect (%)

- COMPOUND: "Cc1nccn1CCC1CCCCN1Cc1ccc(N(C)C)nc1 (centres undefined)"
  TEST_READOUT: "Percent Effect"
  ENDPOINT_RESULT: -3.72
- COMPOUND: "Cc1nc(C2CCCN(C(=O)CCCn3ccnc3C)C2)no1 (centres undefined)"
  TEST_READOUT: "Percent Effect"
  ENDPOINT_RESULT: -5.99
- COMPOUND: "CN1CCN(Cc2cn3c(n2)CN(C(=O)N2CCOCC2)CC3)CC1"
  TEST_READOUT: "Percent Effect"
  ENDPOINT_RESULT: 1.33
- COMPOUND: "COc1cc(CNCc2ccnc(N3CCOCC3)c2)cc(Cl)c1OC"
  TEST_READOUT: "Percent Effect"
  ENDPOINT_RESULT: -4.43
- COMPOUND: "Cc1occc1C(=O)N1CCC2(CC1)CC(c1cccnc1)C(=O)N2C (centres undefined)"
  TEST_READOUT: "Percent Effect"
  ENDPOINT_RESULT: -2.33
- COMPOUND: "COCCCN1CCCN(C(C)c2nc(C3CC3)no2)CC1 (centres undefined)"
  TEST_READOUT: "Percent Effect"
  ENDPOINT_RESULT: -3.11
- COMPOUND: "CN1C(=O)C(C)(C)COc2cc(NS(=O)(=O)Cc3ccccc3)ccc21"
  TEST_READOUT: "Percent Effect"
  ENDPOINT_RESULT: -12.8
- COMPOUND: "CNS(=O)(=O)c1cc(C(=O)NC2CCOc3ccccc32)cc(C)c1C (centres undefined)"
  TEST_READOUT: "Percent Effect"
  ENDPOINT_RESULT: 13.9
- COMPOUND: "COc1ccccc1[C@@H]1CN(C(=O)c2csc(C)n2)C[C@H]1C(=O)O"
  TEST_READOUT: "Percent Effect"
  ENDPOINT_RESULT: -3.07
- COMPOUND: "Cc1cccc(CNC(=O)CNc2cc(CO)ccc2Cl)c1"
  TEST_READOUT: "Percent Effect"
  ENDPOINT_RESULT: 4.86
- COMPOUND: "COc1ccc(CNC(=O)C2(C#N)CCCC2)cc1"
  TEST_READOUT: "Percent Effect"
  ENDPOINT_RESULT: -13.3
- COMPOUND: "Cc1ccc(N2CCCN(C(=O)C3(C#N)CCCCC3)CC2)nn1"
  TEST_READOUT: "Percent Effect"
  ENDPOINT_RESULT: -4.48
- COMPOUND: "COc1c(C2CCCN2C(=O)Cc2c(C)noc2C)c(C)nn1C (centres undefined)"
  TEST_READOUT: "Percent Effect"
  ENDPOINT_RESULT: -0.162
- COMPOUND: "COc1cccc(CN(C)C(=O)CN2CCN(c3nccn3C)CC2)c1"
  TEST_READOUT: "Percent Effect"
  ENDPOINT_RESULT: -12.7
- COMPOUND: "COCc1nn(C(C)C)c2c1CCN(Cc1cccs1)C2"
  TEST_READOUT: "Percent Effect"
  ENDPOINT_RESULT: 1.5
- COMPOUND: "COc1cccc(-c2noc(-c3ccc(NCC4CC4)nc3)n2)c1OC"
  TEST_READOUT: "Percent Effect"
  ENDPOINT_RESULT: -3.38
- COMPOUND: "Cc1ccc(CNC(=O)NCCCn2nc3ccccn3c2=O)s1"
  TEST_READOUT: "Percent Effect"
  ENDPOINT_RESULT: -11
- COMPOUND: "O=C(CN1CCCCC1C1OCCO1)Nc1ccc(F)c(F)c1 (centres undefined)"
  TEST_READOUT: "Percent Effect"
  ENDPOINT_RESULT: 1.85
- COMPOUND: "CC(C)c1csc(C2CCCN(C(=O)Cn3ccccc3=O)C2)n1 (centres undefined)"
  TEST_READOUT: "Percent Effect"
  ENDPOINT_RESULT: 1.07
- COMPOUND: "CCNC(c1ccc(OC)cc1)c1cccnc1 (centres undefined)"
  TEST_READOUT: "Percent Effect"
  ENDPOINT_RESULT: 5.52
- COMPOUND: "Cn1ccnc1CN1CCCC(Cc2ccccn2)C1 (centres undefined)"
  TEST_READOUT: "Percent Effect"
  ENDPOINT_RESULT: -4.84
- COMPOUND: "O=C(CS(=O)(=O)c1ccccc1Cl)NC1CCCCNC1=O (centres undefined)"
  TEST_READOUT: "Percent Effect"
  ENDPOINT_RESULT: -4.35
- COMPOUND: "COCCC(=O)N1CC[C@@H](N(C)C)[C@@H]1Cc1ccccc1"
  TEST_READOUT: "Percent Effect"
  ENDPOINT_RESULT: 10.6
- COMPOUND: "Cc1nc(CN(C)C(=O)Nc2cnn(CC3CCCO3)c2)cs1 (centres undefined)"
  TEST_READOUT: "Percent Effect"
  ENDPOINT_RESULT: -27.6
